Biological target: T1, sN-TALER IV-1 (GinH106Y-TALE13) (synthetic)
T1 chain: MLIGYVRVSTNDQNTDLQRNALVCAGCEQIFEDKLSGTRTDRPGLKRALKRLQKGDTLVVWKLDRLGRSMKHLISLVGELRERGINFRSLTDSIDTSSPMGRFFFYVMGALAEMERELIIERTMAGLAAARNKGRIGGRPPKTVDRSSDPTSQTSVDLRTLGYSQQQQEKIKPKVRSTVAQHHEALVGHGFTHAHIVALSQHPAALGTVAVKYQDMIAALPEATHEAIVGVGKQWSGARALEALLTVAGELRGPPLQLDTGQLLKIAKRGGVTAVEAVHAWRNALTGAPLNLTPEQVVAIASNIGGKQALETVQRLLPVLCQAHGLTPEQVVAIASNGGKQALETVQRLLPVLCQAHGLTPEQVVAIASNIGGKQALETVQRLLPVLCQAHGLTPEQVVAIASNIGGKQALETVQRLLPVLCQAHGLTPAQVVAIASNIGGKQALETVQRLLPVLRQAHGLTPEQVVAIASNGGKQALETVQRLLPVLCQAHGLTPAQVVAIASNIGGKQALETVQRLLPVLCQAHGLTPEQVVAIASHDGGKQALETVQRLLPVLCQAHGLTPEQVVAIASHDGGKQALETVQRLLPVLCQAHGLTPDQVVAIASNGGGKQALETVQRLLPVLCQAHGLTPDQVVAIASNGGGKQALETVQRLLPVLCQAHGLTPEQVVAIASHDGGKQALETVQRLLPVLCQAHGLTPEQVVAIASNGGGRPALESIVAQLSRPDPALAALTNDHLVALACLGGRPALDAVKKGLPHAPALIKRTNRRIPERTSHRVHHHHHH
Assay: cell_activity; E. coli
Conditions: tags: 6-His; chain copies: 2 per site, tetramer in synapsis (stated)
The following binders are listed with their measured activity values.
property label: activity (score)

binder="Gin20TALE+3 (dsDNA) DNA 1: AGAAGGTATTTATATAATCCAAAACCATGGTTTACAGGTATATAAATACCTTCT DNA 2: AGAAGGTATTTATATACCTGTAAACCATGGTTTTGGATTATATAAATACCTTCT" property_label=activity measured_value=3
binder="Gin20TALE+1 (dsDNA) DNA 1: AGAAGGTATTTATATTCCAAAACCATGGTTTACAGATATAAATACCTTCT DNA 2: AGAAGGTATTTATATCTGTAAACCATGGTTTTGGAATATAAATACCTTCT" property_label=activity measured_value=2
binder="Gin20TALE+12 (dsDNA) DNA 1: AGAAGGTATTTATATAGGCACACTTATCCAAAACCATGGTTTACAGGACCACACGGTATATAAATACCTTCT DNA 2: AGAAGGTATTTATATACCGTGTGGTCCTGTAAACCATGGTTTTGGATAAGTGTGCCTATATAAATACCTTCT" property_label=activity measured_value=2
